Value source: patent US20120323164A1

# Test Details: Photodecomposition of phthalocyanines in toluene under white light, no added radical source
# Particulars: time 8 h, radiation 344 kJ/mol × 10^−6; toluene ~9 μM, no added alkene, white light 1.2 kJ/s/m^2
Assay Metric: decomp (%)

compound="C=CCCCC[Si](C)(C)O[Si]1(O[Si](C)(C)CCCCC=C)n2c3c4ccccc4c2N=C2N=C(N=c4c5ccccc5c(n41)=NC1=NC(=N3)c3ccccc31)c1ccccc12 [Pc 270, SiPc[OSi(CH3)2(CH2)4CH═CH2]2]" reported_measurement=3
compound="CC/C=C\\C/C=C\\C/C=C\\C/C=C\\C/C=C\\C/C=C\\CCC(=O)O.CC/C=C\\C/C=C\\C/C=C\\C/C=C\\C/C=C\\C/C=C\\CCC(=O)O.CN(C)CCC[Si](C)(C)O[Si]1(O[Si](C)(C)CCCN(C)C)n2c3c4ccccc4c2N=C2N=C(N=c4c5ccccc5c(n41)=NC1=NC(=N3)c3ccccc31)c1ccccc12 [Pc 292]" reported_measurement=22
compound="COCCC[Si](C)(C)O[Si]1(O[Si](C)(C)CCCOC)n2c3c4ccccc4c2N=C2N=C(N=c4c5ccccc5c(n41)=NC1=NC(=N3)c3ccccc31)c1ccccc12 [Pc 92, SiPc[OSi(CH3)2(CH2)3OCH3]2]" reported_measurement=1

----------
# Test Details: Photodecomposition of phthalocyanines in toluene under white light, no added radical source
# Particulars: time 4 h, radiation 172 kJ/mol × 10^−6; toluene ~9 μM, no added alkene, white light 1.2 kJ/s/m^2
Assay Metric: decomp (%)

compound="CC1=C(/C=C/C(C)=C/C=C/C(C)=C/C(=O)O[Si]2(OC(=O)/C=C(C)/C=C/C=C(C)/C=C/C3=C(C)CCCC3(C)C)n3c4c5ccccc5c3N=C3N=C(N=c5c6ccccc6c(n52)=NC2=NC(=N4)c4ccccc42)c2ccccc23)C(C)(C)CCC1 (centres unmarked) [Pc 301, SiPc[OC(O)(CH═C(CH3)CH═CH)2C6H6(CH3)3]2]" assay_metric="decomp (%)" units_label=% reported_measurement=25
compound="CN(C)CCC[Si](C)(C)O[Si]1(O)n2c3c4ccccc4c2N=C2N=C(N=c4c5ccccc5c(n41)=NC1=NC(=N3)c3ccccc31)c1ccccc12 (centres unmarked)" assay_metric="decomp (%)" units_label=% reported_measurement=12

----------
# Test Details: Photodecomposition of phthalocyanines in toluene under white light, no added radical source
# Particulars: time 4 h, radiation 172 kJ/mol × 10^−6; toluene ~9 μM, no added alkene, white light 1.2 kJ/s/m^2
Assay Metric: decomp (%)

molecule="C[Si](C)(CCCN(c1ccccc1)c1ccccc1)O[Si]1(O[Si](C)(C)CCCN(c2ccccc2)c2ccccc2)n2c3c4ccccc4c2N=C2N=C(N=c4c5ccccc5c(n41)=NC1=NC(=N3)c3ccccc31)c1ccccc12 [Pc 159, SiPc[OSi(CH3)2(CH2)3N(C6H5)2]2]" reported_measurement=0
molecule="C=CC[Si](C)(C)O[Si]1(O[Si](C)(C)CC=C)n2c3c4ccccc4c2N=C2N=C(N=c4c5ccccc5c(n41)=NC1=NC(=N3)c3ccccc31)c1ccccc12 [Pc 271, SiPc[OSi(CH3)2CH2CH═CH2]2]" reported_measurement=10
molecule="CSCCC[Si](C)(C)O[Si]1(O[Si](C)(C)CCCSC)n2c3c4ccccc4c2N=C2N=C(N=c4c5ccccc5c(n41)=NC1=NC(=N3)c3ccccc31)c1ccccc12 [Pc 97, SiPc[OSi(CH3)2(CH2)3SCH3]2]" reported_measurement=42
molecule=CC/C=C\C/C=C\C/C=C\C/C=C\C/C=C\C/C=C\CCC(=O)O.CC/C=C\C/C=C\C/C=C\C/C=C\C/C=C\C/C=C\CCC(=O)O.CN(C)CCC[Si](C)(C)O[Si]1(O[Si](C)(C)CCCN(C)C)n2c3c4ccccc4c2N=C2N=C(N=c4c5ccccc5c(n41)=NC1=NC(=N3)c3ccccc31)c1ccccc12 reported_measurement=21

----------
# Test Details: Photodecomposition of phthalocyanines in toluene under white light, no added radical source
# Particulars: time 6 h, radiation 258 kJ/mol × 10^−6; toluene ~9 μM, no added alkene, white light 1.2 kJ/s/m^2
Lab note: anything with decomp (%) at or over 20% counts as 1 (yes); the rest go in 0 (no).

compound="C=CC[Si](C)(C)O[Si]1(O[Si](C)(C)CC=C)n2c3c4ccccc4c2N=C2N=C(N=c4c5ccccc5c(n41)=NC1=NC(=N3)c3ccccc31)c1ccccc12 [Pc 271, SiPc[OSi(CH3)2CH2CH═CH2]2]" assigned_class="0 (no)"
compound="CN(C)CCC[Si](C)(C)O[Si]1(O[Si](C)(C)CCCN(C)C)n2c3c4ccccc4c2N=C2N=C(N=c4c5ccccc5c(n41)=NC1=NC(=N3)c3ccccc31)c1ccccc12 [Pc 12, SiPc[OSi(CH3)2(CH2)3N(CH3)2]2]" assigned_class="1 (yes)"
compound="CN(C)CCC[Si](C)(C)O[Si]1(O)n2c3c4ccccc4c2N=C2N=C(N=c4c5ccccc5c(n41)=NC1=NC(=N3)c3ccccc31)c1ccccc12 (centres unmarked) [Pc 4, HOSiPcOSi(CH3)2(CH2)3N(CH3)2]" assigned_class="0 (no)"
compound="CCCCCCCCCCCCCCCCCC(=O)O.CCCCCCCCCCCCCCCCCC(=O)O.CN(C)CCC[Si](C)(C)O[Si]1(O[Si](C)(C)CCCN(C)C)n2c3c4ccccc4c2N=C2N=C(N=c4c5ccccc5c(n41)=NC1=NC(=N3)c3ccccc31)c1ccccc12 [Pc 287]" assigned_class="1 (yes)"
compound="CC1=C(/C=C/C(C)=C/C=C/C(C)=C/C(=O)O[Si]2(OC(=O)/C=C(C)/C=C/C=C(C)/C=C/C3=C(C)CCCC3(C)C)n3c4c5ccccc5c3N=C3N=C(N=c5c6ccccc6c(n52)=NC2=NC(=N4)c4ccccc42)c2ccccc23)C(C)(C)CCC1 (centres unmarked) [Pc 301, SiPc[OC(O)(CH═C(CH3)CH═CH)2C6H6(CH3)3]2]" assigned_class="1 (yes)"
compound="C[Si](C)(CCCN(c1ccccc1)c1ccccc1)O[Si]1(O[Si](C)(C)CCCN(c2ccccc2)c2ccccc2)n2c3c4ccccc4c2N=C2N=C(N=c4c5ccccc5c(n41)=NC1=NC(=N3)c3ccccc31)c1ccccc12 [Pc 159, SiPc[OSi(CH3)2(CH2)3N(C6H5)2]2]" assigned_class="0 (no)"

----------
# Test Details: Photodecomposition of phthalocyanines in toluene under white light, no added radical source
# Particulars: time 6 h, radiation 258 kJ/mol × 10^−6; toluene ~9 μM, no added alkene, white light 1.2 kJ/s/m^2
Assay Metric: decomp (%)

compound="C=CCCCC[Si](C)(C)O[Si]1(O[Si](C)(C)CCCCC=C)n2c3c4ccccc4c2N=C2N=C(N=c4c5ccccc5c(n41)=NC1=NC(=N3)c3ccccc31)c1ccccc12 [Pc 270, SiPc[OSi(CH3)2(CH2)4CH═CH2]2]" units_label=% reported_measurement=2
compound="CSCCC[Si](C)(C)O[Si]1(O[Si](C)(C)CCCSC)n2c3c4ccccc4c2N=C2N=C(N=c4c5ccccc5c(n41)=NC1=NC(=N3)c3ccccc31)c1ccccc12 [Pc 97, SiPc[OSi(CH3)2(CH2)3SCH3]2]" units_label=% reported_measurement=43
compound="CN(C)CCCCCC[Si](C)(C)O[Si]1(O[Si](C)(C)CCCCCCN(C)C)n2c3c4ccccc4c2N=C2N=C(N=c4c5ccccc5c(n41)=NC1=NC(=N3)c3ccccc31)c1ccccc12 [Pc 85, SiPc[OSi(CH3)2(CH2)6N(CH3)2]2]" units_label=% reported_measurement=5
compound="CC/C=C\\C/C=C\\C/C=C\\C/C=C\\C/C=C\\C/C=C\\CCC(=O)O.CC/C=C\\C/C=C\\C/C=C\\C/C=C\\C/C=C\\C/C=C\\CCC(=O)O.CN(C)CCC[Si](C)(C)O[Si]1(O[Si](C)(C)CCCN(C)C)n2c3c4ccccc4c2N=C2N=C(N=c4c5ccccc5c(n41)=NC1=NC(=N3)c3ccccc31)c1ccccc12 [Pc 292]" units_label=% reported_measurement=22

----------
# Test Details: Photodecomposition of phthalocyanines in toluene under white light, no added radical source
# Particulars: time 2 h, radiation 86 kJ/mol × 10^−6; toluene ~9 μM, no added alkene, white light 1.2 kJ/s/m^2
Classify on decomp (%) using interval 1 (below 2%), interval 2 (2% to below 10%), interval 3 (10% or more)

molecule="COCCC[Si](C)(C)O[Si]1(O[Si](C)(C)CCCOC)n2c3c4ccccc4c2N=C2N=C(N=c4c5ccccc5c(n41)=NC1=NC(=N3)c3ccccc31)c1ccccc12 [Pc 92, SiPc[OSi(CH3)2(CH2)3OCH3]2]" assigned_class="interval 1"
molecule="CC/C=C\\C/C=C\\C/C=C\\C/C=C\\C/C=C\\C/C=C\\CCC(=O)O.CC/C=C\\C/C=C\\C/C=C\\C/C=C\\C/C=C\\C/C=C\\CCC(=O)O.CN(C)CCC[Si](C)(C)O[Si]1(O[Si](C)(C)CCCN(C)C)n2c3c4ccccc4c2N=C2N=C(N=c4c5ccccc5c(n41)=NC1=NC(=N3)c3ccccc31)c1ccccc12 [Pc 292]" assigned_class="interval 3"
molecule="CSCCC[Si](C)(C)O[Si]1(O[Si](C)(C)CCCSC)n2c3c4ccccc4c2N=C2N=C(N=c4c5ccccc5c(n41)=NC1=NC(=N3)c3ccccc31)c1ccccc12 [Pc 97, SiPc[OSi(CH3)2(CH2)3SCH3]2]" assigned_class="interval 3"
molecule="C=CC[Si](C)(C)O[Si]1(O[Si](C)(C)CC=C)n2c3c4ccccc4c2N=C2N=C(N=c4c5ccccc5c(n41)=NC1=NC(=N3)c3ccccc31)c1ccccc12 [Pc 271, SiPc[OSi(CH3)2CH2CH═CH2]2]" assigned_class="interval 2"
molecule="C[Si](C)(CCCN(c1ccccc1)c1ccccc1)O[Si]1(O[Si](C)(C)CCCN(c2ccccc2)c2ccccc2)n2c3c4ccccc4c2N=C2N=C(N=c4c5ccccc5c(n41)=NC1=NC(=N3)c3ccccc31)c1ccccc12 [Pc 159, SiPc[OSi(CH3)2(CH2)3N(C6H5)2]2]" assigned_class="interval 1"
molecule="CN(C)CCC[Si](C)(C)O[Si]1(O)n2c3c4ccccc4c2N=C2N=C(N=c4c5ccccc5c(n41)=NC1=NC(=N3)c3ccccc31)c1ccccc12 (stereo not shown) [Pc 4, HOSiPcOSi(CH3)2(CH2)3N(CH3)2]" assigned_class="interval 3"
molecule="CN(C)CCCCCC[Si](C)(C)O[Si]1(O[Si](C)(C)CCCCCCN(C)C)n2c3c4ccccc4c2N=C2N=C(N=c4c5ccccc5c(n41)=NC1=NC(=N3)c3ccccc31)c1ccccc12 [Pc 85, SiPc[OSi(CH3)2(CH2)6N(CH3)2]2]" assigned_class="interval 2"
molecule="C=CCCCC[Si](C)(C)O[Si]1(O[Si](C)(C)CCCCC=C)n2c3c4ccccc4c2N=C2N=C(N=c4c5ccccc5c(n41)=NC1=NC(=N3)c3ccccc31)c1ccccc12 [Pc 270, SiPc[OSi(CH3)2(CH2)4CH═CH2]2]" assigned_class="interval 1"
molecule="CCCCCCCCCCCCCCCCCC(=O)O.CCCCCCCCCCCCCCCCCC(=O)O.CN(C)CCC[Si](C)(C)O[Si]1(O[Si](C)(C)CCCN(C)C)n2c3c4ccccc4c2N=C2N=C(N=c4c5ccccc5c(n41)=NC1=NC(=N3)c3ccccc31)c1ccccc12 [Pc 287]" assigned_class="interval 3"
